- Test system: Strep.haem. A 266
- methodNotes: agar serial dilution test
- Format: cell-based, Streptococcus haemolyticus
- protocolConditions: Streptococcus; agar serial dilution, 24 hours, 37° C.; read-out: minimal inhibitory concentration (MIC)
Kindly apply the following: 1 if MIC is less than 0.5 µg/mL, 0 in every other case.

Example results:
In [3]: df
Out[3]:
                                   compound  grouplabel
0  CCc1noc(C(C)C(=O)N[C@@H]2C(=O)N3C(C(=O)O)=C(COC(C)=O)CS[C@H]23)n1 (mixture of isomers) [Example 11K]           1
1  CC1=C(C(=O)O)N2C(=O)[C@@H](NC(=O)Cc3nc(C)no3)[C@H]2SC1 [Example 11F]           0
2  Cc1nc(CC(=O)N[C@@H]2C(=O)N3C(C(=O)O)=C(CN=[N+]=[N-])CS[C@H]23)no1           1

Challenge: Does CC(=O)OCC1=C(C(=O)O)N2C(=O)[C@@H](NC(=O)Cc3nc(-c4c(Cl)cccc4Cl)no3)[C@H]2SC1 [Example 11C] have MIC strictly under 0.5 µg/mL?
Response given: 1

Challenge: Does Cc1nc(CC(=O)N[C@@H]2C(=O)N3[C@@H]2SC(C)(C)[C@@H]3C(=O)O)no1 have MIC strictly under 0.5 µg/mL?
Response given: 1

Challenge: Does COCc1noc(CC(=O)N[C@@H]2C(=O)N3[C@@H]2SC(C)(C)[C@@H]3C(=O)O)n1 have MIC strictly under 0.5 µg/mL?
Response given: 1

---

- Test system: Staph.aureus A 321
- methodNotes: agar serial dilution test
- Assay type: cell-based, Staphylococcus aureus
- protocolConditions: Staphylococcus aureus, A321, 24 h, agar serial dilution, 24 hours, 37° C.; read-out: minimal inhibitory concentration (MIC)
Kindly apply the following: met if MIC is less than 0.5 µg/mL, not met in every other case.

Example results:
>>> print(df.to_string())
                                   compound  grouplabel
0  CC(=O)OCC1=C(C(=O)O)N2C(=O)[C@@H](NC(=O)Cc3noc(C)n3)[C@H]2SC1 [Example 11D]     not met
1  CC1(C)S[C@@H]2[C@H](NC(=O)[C@H](N)c3ccccc3)C(=O)N2[C@H]1C(=O)O [Ampicillin, reference compound]         met
2  COC(=O)C(C(=O)N[C@@H]1C(=O)N2C(C(=O)O)=C(COC(C)=O)CS[C@H]12)c1nc(C)no1 (some centres unmarked) [Example 38]     not met
3  CC(=O)OCC1=C(C(=O)O)N2C(=O)[C@@H](NC(=O)C(C)c3nc(C)no3)[C@H]2SC1 (mixture of isomers) [Example 11I]     not met

Challenge: Does Cn1nnnc1SCC1=C(C(=O)O)N2C(=O)[C@@H](NC(=O)Cc3nc(CC(=O)O)no3)[C@H]2SC1 [Compound F] have MIC strictly under 0.5 µg/mL?
Response given: not met

Challenge: Does CC1=C(C(=O)O)N2C(=O)[C@@H](NC(=O)Cc3nc(C)no3)[C@H]2SC1 [Example 11F] have MIC strictly under 0.5 µg/mL?
Response given: not met

Challenge: Does Cc1nc(CC(=O)N[C@@H]2C(=O)N3C(C(=O)O)=C(CN=[N+]=[N-])C[S+]([O-])[C@H]23)no1 (some centres unmarked) [Example 19] have MIC strictly under 0.5 µg/mL?
Response given: not met

Challenge: Does Cc1nc(CC(=O)N[C@@H]2C(=O)N3C(C(=O)O)=C(CSc4nnnn4C)CS[C@H]23)no1 [41 B] have MIC strictly under 0.5 µg/mL?
Response given: met

Challenge: Does CC(=O)OCC1=C(C(=O)O)N2C(=O)[C@@H](NC(=O)Cc3nc(-c4c(C)cc(C)cc4C)no3)[C@H]2SC1 [Example 9] have MIC strictly under 0.5 µg/mL?
Response given: met

---

- Tested on: Dipl.pneum. L 54
- methodNotes: agar serial dilution test
- Assay type: cell-based, Diplococcus pneumoniae
- protocolConditions: Streptococcus pneumoniae; agar serial dilution, 24 hours, 37° C.; read-out: minimal inhibitory concentration (MIC)
Kindly apply the following: label 1 if MIC is less than 0.8 µg/mL, label 0 in every other case.

Example results:
                                   molecule  grouplabel
0  CCc1noc(CC(=O)N[C@@H]2C(=O)N3C(C(=O)O)=C(COC(C)=O)CS[C@H]23)n1 [Example 11L]     label 0
1  Cn1nnnc1SCC1=C(C(=O)O)N2C(=O)[C@@H](NC(=O)Cc3nc(CC(=O)O)no3)[C@H]2SC1     label 0
2  CCc1noc(C(C)C(=O)N[C@@H]2C(=O)N3[C@@H]2SC(C)(C)[C@@H]3C(=O)O)n1 (some centres unmarked) [Example 11M]     label 1
3  Cc1noc(CC(=O)N[C@@H]2C(=O)N3[C@@H]2SC(C)(C)[C@@H]3C(=O)O)n1 [Example 11B]     label 1
4  Cc1nc(CC(=O)N[C@@H]2C(=O)N3C(C(=O)O)=C(CN=[N+]=[N-])CS[C@H]23)no1     label 0

Challenge: Does CC(=O)OCC1=C(C(=O)O)N2C(=O)[C@@H](NC(=O)Cc3nc(-c4c(Cl)cccc4Cl)no3)[C@H]2SC1 [Example 11C] have MIC strictly under 0.8 µg/mL?
Response given: label 1

Challenge: Does CCc1nc(CC(=O)N[C@@H]2C(=O)N3C(C(=O)O)=C(CSc4nnc(C)s4)CS[C@H]23)no1 have MIC strictly under 0.8 µg/mL?
Response given: label 1

Challenge: Does CC(=O)OCC1=C(C(=O)O)N2C(=O)[C@@H](NC(=O)Cc3noc(Cc4ccccc4)n3)[C@H]2SC1 have MIC strictly under 0.8 µg/mL?
Response given: label 1

Challenge: Does CC(=O)OCC1=C(C(=O)O)N2C(=O)[C@@H](NC(=O)Cc3noc(C)n3)[C@H]2SC1 [Example 11D] have MIC strictly under 0.8 µg/mL?
Response given: label 0

Challenge: Does CCc1noc(C(C)C(=O)N[C@@H]2C(=O)N3C(C(=O)O)=C(COC(C)=O)CS[C@H]23)n1 (mixture of isomers) [Example 11K] have MIC strictly under 0.8 µg/mL?
Response given: label 0

Challenge: Does CC(=O)OCC1=C(C(=O)O)N2C(=O)[C@@H](NC(=O)Cc3ccccc3)[C@H]2SC1 [Cephalosporin G, reference compound] have MIC strictly under 0.8 µg/mL?
Response given: label 1

Challenge: Does CC1(C)S[C@@H]2[C@H](NC(=O)Cc3nc(-c4c(Cl)cccc4Cl)no3)C(=O)N2[C@H]1C(=O)O [Example 11A] have MIC strictly under 0.8 µg/mL?
Response given: label 0

Challenge: Does CC1(C)S[C@@H]2[C@H](NC(=O)[C@H](N)c3ccccc3)C(=O)N2[C@H]1C(=O)O [Ampicillin, reference compound] have MIC strictly under 0.8 µg/mL?
Response given: label 1

Challenge: Does Cc1nc(CC(=O)N[C@@H]2C(=O)N3[C@@H]2SC(C)(C)[C@@H]3C(=O)O)no1 have MIC strictly under 0.8 µg/mL?
Response given: label 0

Challenge: Does CC(=O)OCC1=C(C(=O)O)N2C(=O)[C@@H](NC(=O)C(c3ccccc3)c3nc(C)no3)[C@H]2SC1 (some centres unmarked) have MIC strictly under 0.8 µg/mL?
Response given: label 0

Challenge: Does CC1=C(C(=O)O)N2C(=O)[C@@H](NC(=O)Cc3nc(C)no3)[C@H]2SC1 [Example 11F] have MIC strictly under 0.8 µg/mL?
Response given: label 0

Challenge: Does Cc1nc(CC(=O)N[C@@H]2C(=O)N3C(C(=O)O)=C(CN=[N+]=[N-])C[S+]([O-])[C@H]23)no1 (some centres unmarked) have MIC strictly under 0.8 µg/mL?
Response given: label 0

Challenge: Does CC1=C(C(=O)O)N2C(=O)[C@@H](NC(=O)Cc3nc(Cc4ccccc4)no3)[C@H]2SC1 have MIC strictly under 0.8 µg/mL?
Response given: label 0

Challenge: Does COCc1noc(CC(=O)N[C@@H]2C(=O)N3C(C(=O)O)=C(COC(C)=O)CS[C@H]23)n1 have MIC strictly under 0.8 µg/mL?
Response given: label 1

Challenge: Does Cc1noc(C(C(=O)N[C@@H]2C(=O)N3[C@@H]2SC(C)(C)[C@@H]3C(=O)O)c2ccccc2)n1 (mixture of isomers) have MIC strictly under 0.8 µg/mL?
Response given: label 1

---

I'd appreciate it if you could supply MIC values for the items below.
- Tested on: Prot.mirab. A 1200
- methodNotes: agar serial dilution test
- Type: cell-based, Proteus mirabilis
- protocolConditions: Proteus mirabilis, 24 h, agar serial dilution, 24 hours, 37° C.; read-out: minimal inhibitory concentration (MIC)
Numbers only, in µg/mL.

Example entries begin here.
>>> print(df.to_string())
                                   compound  valuetype  experimentalvalue
0  Cc1nc(CC(=O)N[C@@H]2C(=O)N3C(C(=O)O)=C(CSc4nnnn4C)CS[C@H]23)no1 [41 B]        MIC                 25
1  Cc1nc(CC(=O)N[C@@H]2C(=O)N3[C@@H]2SC(C)(C)[C@@H]3C(=O)O)no1 [Example 13]        MIC                 25
2  COCc1noc(CC(=O)N[C@@H]2C(=O)N3[C@@H]2SC(C)(C)[C@@H]3C(=O)O)n1 [Compound A]        MIC                100
3  Cn1nnnc1SCC1=C(C(=O)O)N2C(=O)[C@@H](NC(=O)Cc3nc(CC(=O)O)no3)[C@H]2SC1 [Compound F]        MIC                  3
4  C=CCNC(=O)Cc1nc(CC(=O)N[C@@H]2C(=O)N3C(C(=O)O)=C(COC(C)=O)CS[C@H]23)no1 [Example 31]        MIC                 25

Please turn your attention to the following entry.
Challenge: Could you tell me which MIC is on file for Cc1nnc(SCC2=C(C(=O)O)N3C(=O)[C@@H](NC(=O)Cn4cnnn4)[C@H]3SC2)s1 [Cephazolin, reference compound] ?
Response given: 6
